Measured values drawn from ChEMBL document CHEMBL5154792 for this set.

- assay.details: Thermodynamic solubility of the compound at pH 7.4 after 24 hrs by UPLC-MS analysis
- Format: physicochemical
- stated.conditions: buffer, read-out: Therm_solubility
Binary call on solubility thermodynamic at 24 h: 1.0 from 600 µM upward, 0.0 beneath that.

[
  {
    "smiles.text": "CC(C)C[C@@H]1NC(=O)[C@@H](CC(C)C)NC(=O)[C@@H](CC(C)C)NC(=O)[C@@H](CCC(=O)N2CCCC2)NC(=O)[C@H]2CCCN2C(=O)[C@H](CC(C)C)NC1=O",
    "assigned.label": 1.0
  },
  {
    "smiles.text": "CC(C)C[C@@H]1NC(=O)[C@@H](CC(C)C)NC(=O)[C@H](CC(C)C)NC(=O)[C@@H](CC(C)C)NC(=O)[C@H]2CCCN2C(=O)[C@H](CC(C)C)NC1=O",
    "assigned.label": 0.0
  }
]

Query: # check: solubility thermodynamic at 24 h of CC(C)C[C@@H]1NC(=O)[C@H](CCC(=O)N2CCCC2)NC(=O)[C@@H](CC(C)C)NC(=O)[C@@H](CC(C)C)NC(=O)[C@@H](CC(C)C)NC(=O)[C@H]2CCCN2C1=O is greater than or equal to 600 µM
Result: 0.0

Query: # check: solubility thermodynamic at 24 h of CC(C)C[C@@H]1NC(=O)[C@@H](CC(C)C)NC(=O)[C@@H](CC(C)C)NC(=O)[C@@H](CCC(=O)N2CCCC2)NC(=O)[C@@H](CC(C)C)NC(=O)[C@H]2CCCN2C1=O is greater than or equal to 600 µM
Result: 0.0

Query: # check: solubility thermodynamic at 24 h of CC(C)C[C@@H]1NC(=O)[C@@H](CC(C)C)NC(=O)[C@@H](CC(C)C)NC(=O)[C@@H](CC(C)C)NC(=O)[C@H]2CCCN2C(=O)[C@H](CC(C)C)NC1=O is greater than or equal to 600 µM
Result: 0.0

Query: # check: solubility thermodynamic at 24 h of CC(C)C[C@@H]1NC(=O)[C@@H](CC(C)C)NC(=O)[C@H](CC(C)C)NC(=O)[C@@H](CC(=O)N(C)C)NC(=O)[C@H]2CCCN2C(=O)[C@H](CC(C)C)NC1=O is greater than or equal to 600 µM
Result: 1.0

###

Papp at 15 h values for the compounds below.
- assay.details: Apparent permeability of the compound after 15 hrs by UPLC-MS based PAMPA
- Format: ADME
- stated.conditions: PAMPA
Write the answer as a number in ×10⁻⁶ cm/s, unit excluded.

Please review the following examples before continuing.
[
  {
    "smiles.text": "CC(C)C[C@@H]1NC(=O)[C@@H](CC(C)C)NC(=O)[C@H](CC(C)C)NC(=O)[C@@H](CC(C)C)NC(=O)[C@H]2CCCN2C(=O)[C@H](CCC(=O)N2CCCC2)NC1=O",
    "Papp at 15 h, ×10⁻⁶ cm/s": 0.18
  },
  {
    "smiles.text": "CC(C)C[C@@H]1NC(=O)[C@@H](CCC(=O)N2CCCC2)NC(=O)[C@@H](CC(C)C)NC(=O)[C@@H](CC(C)C)NC(=O)[C@@H](CC(C)C)NC(=O)[C@H]2CCCN2C1=O",
    "Papp at 15 h, ×10⁻⁶ cm/s": 0.13
  },
  {
    "smiles.text": "COC(=O)CC[C@H]1NC(=O)[C@H]2CCCN2C(=O)[C@H](CC(C)C)NC(=O)[C@H](CC(C)C)NC(=O)[C@@H](CC(C)C)NC(=O)[C@H](CC(C)C)NC1=O",
    "Papp at 15 h, ×10⁻⁶ cm/s": 2
  },
  {
    "smiles.text": "CC(C)C[C@@H]1NC(=O)[C@@H](CC(C)C)NC(=O)[C@H]2CCCN2C(=O)[C@H](CC(C)C)NC(=O)[C@H](CCC(=O)N2CCCC2)NC(=O)[C@@H](CC(C)C)NC1=O",
    "Papp at 15 h, ×10⁻⁶ cm/s": 0.28
  },
  {
    "smiles.text": "CC(C)C[C@@H]1NC(=O)[C@H](CCC(=O)N2CCCC2)NC(=O)[C@@H](CC(C)C)NC(=O)[C@@H](CC(C)C)NC(=O)[C@@H](CC(C)C)NC(=O)[C@H]2CCCN2C1=O",
    "Papp at 15 h, ×10⁻⁶ cm/s": 0.32
  }
]

From here, focus on the item given below.
Query: Which Papp at 15 h is listed for CC(C)C[C@@H]1NC(=O)[C@@H](CC(C)C)NC(=O)[C@@H](CCC(=O)N2CCCC2)NC(=O)[C@@H](CC(C)C)NC(=O)[C@H]2CCCN2C(=O)[C@H](CC(C)C)NC1=O ?
Result: 0.66
